- System: antibody-forming cells (AFC) in the spleen
- assaySummary: Influence of compound on humoral immune response to sheep erythrocytes, C57B1/6 female mice (AFC in spleen, hemagglutinins)
- Assay type: in vivo
- statedConditions: 45.5 and 91 μg/mouse
observationType: Immunogenic activity

Recorded results for 4 compounds are shown here.
compound="CC/C=C\\C/C=C\\C/C=C\\CCCCCCCC(=O)N[C@@H](Cc1ccc(OP(=O)(O)O)cc1)C(=O)O [Compound 20]" testedtarget="antibody-forming cells (AFC) in the spleen" endpointvalue="no immunogenic activity"
compound="CC/C=C\\C/C=C\\C/C=C\\CCCCCCCC(=O)N[C@H](C(=O)O)[C@@H](C)OP(=O)(O)O [Compound 19]" testedtarget="antibody-forming cells (AFC) in the spleen" endpointvalue="no immunogenic activity"
compound="CC/C=C\\C/C=C\\C/C=C\\C/C=C\\C/C=C\\C/C=C\\CCC(=O)N[C@@H](COP(=O)(O)O)C(=O)O [Compound 10]" testedtarget="antibody-forming cells (AFC) in the spleen" endpointvalue="no immunogenic activity"
compound="CC/C=C\\C/C=C\\C/C=C\\C/C=C\\C/C=C\\C/C=C\\CCC(=O)N[C@@H](Cc1ccc(OP(=O)(O)O)cc1)C(=O)O [Compound 12]" testedtarget="antibody-forming cells (AFC) in the spleen" endpointvalue="no immunogenic activity"

Fill in: antibody-forming cells (AFC) in the spleen Immunogenic activity for CC/C=C\C/C=C\C/C=C\C/C=C\C/C=C\C/C=C\CCC(=O)N[C@H](C(=O)O)[C@@H](C)OP(=O)(O)O [Compound 11] = no immunogenic activity

Fill in: antibody-forming cells (AFC) in the spleen Immunogenic activity for CC/C=C\C/C=C\C/C=C\C/C=C\C/C=C\CCCC(=O)N[C@@H](COP(=O)(O)O)C(=O)O [Compound 14] = no immunogenic activity

Fill in: antibody-forming cells (AFC) in the spleen Immunogenic activity for CC/C=C\C/C=C\C/C=C\C/C=C\C/C=C\CCCC(=O)NCCOP(=O)(O)O [Compound 13] = no immunogenic activity

Fill in: antibody-forming cells (AFC) in the spleen Immunogenic activity for CC/C=C\C/C=C\C/C=C\CCCCCCCC(=O)NCCOP(=O)(O)O [Compound 17] = no immunogenic activity

* * *

- Test system: antibody-forming cells (AFC) in the spleen
- assaySummary: Influence of compound on humoral immune response to sheep erythrocytes, C57B1/6 female mice (AFC in spleen, hemagglutinins)
- Assay type: in vivo
- statedConditions: 136.5 μg/mouse, i.v., vs control
Effect on hemagglutinin titers listing for selected compounds.

Recorded results for 4 compounds are shown here.
compound="CC1=C(/C=C/C(C)=C/C=C/C(C)=C\\C(=O)NCCOP(=O)(O)O)C(C)(C)CCC1 [Compound 1a]" endpointvalue="+6,5 p > 0.05%"
compound="CC/C=C\\C/C=C\\C/C=C\\CCCCCCCC(=O)N[C@H](C(=O)O)[C@@H](C)OP(=O)(O)O [Compound 19]" endpointvalue="+6.3 p > 0.05%"
compound="CC/C=C\\C/C=C\\C/C=C\\C/C=C\\C/C=C\\CCCC(=O)NCCOP(=O)(O)O [Compound 13]" endpointvalue="+14,4 p > 0.05%"
compound="CC/C=C\\C/C=C\\C/C=C\\C/C=C\\C/C=C\\C/C=C\\CCC(=O)N[C@@H](Cc1ccc(OP(=O)(O)O)cc1)C(=O)O [Compound 12]" endpointvalue="+7.7 p > 0.05%"

Now turn to the next compound.
Input CC/C=C\C/C=C\C/C=C\CCCCCCCC(=O)NCCOP(=O)(O)O [Compound 17] . Output Effect on hemagglutinin titers: +2.6 p > 0.05%
